Source of measurements: the supplement of paper PMC10065799

tested on: c-Src; assay: phosphorylation enrichment, bacterial display (enrichment ratio); higher = better substrate or ligand; peptides without Tyr show the background;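 further: 11-residue human phosphosite peptides and single-mutation variants displayed on the E. coli surface, counted by deep sequencing, each peptide's frequency after selection divided by its frequency in the unselected input library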;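 further: frequency after pTyr selection over input frequency; kinase dosed for 20-30% of maximal phosphorylation in three min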
Please enter Satisfied where phosphorylation enrichment is greater than or equal to 0.6, and Not satisfied where it is lower.

Task: Does the sequence KDKLPYLYDDP [GPX2_Y125_P126L] have recorded phosphorylation enrichment that is 0.6 or more?
Output: Not satisfied

Task: Assess whether reported phosphorylation enrichment for PGVNFYFQVSA sits at 0.6 or higher.
Output: Not satisfied

Task: State whether the measured phosphorylation enrichment reaches 0.6, counting equality as reaching it, for TRNVRYLTLDI [AKR1C2_Y305_N300T]
Output: Not satisfied

Task: In plain terms: is recorded phosphorylation enrichment at least 0.6 for LESTLYESSVV [TRPV4_Y91] ?
Output: Satisfied

Task: Check the entry TRDTDYQMTKR [ADA_Y308_L304R] : does phosphorylation enrichment equal or exceed 0.6?
Output: Not satisfied

Task: Could you please find out whether HKNNNYEPNLF [BRCA2_Y57] has phosphorylation enrichment that meets 0.6 or exceeds it?
Output: Not satisfied

Task: Has PPGRSYSPCDF [TNS1_Y793_Y796C_YF] a recorded phosphorylation enrichment greater than or equal to 0.6?
Output: Satisfied

Task: Reported phosphorylation enrichment at or above 0.6? SNNFIYTTLGV [FAM83B_Y639_K640T_YF]
Output: Satisfied

***
Task: Hello, I need to know if FQKNSYSEELR [LMNA_Y211_I210S] has measured phosphorylation enrichment not below 0.6. Thanks!
Output: Not satisfied

Task: Is phosphorylation enrichment for HQPGEYIFHAE [FLT3_Y416] at or above 0.6?
Output: Satisfied

Task: Given the entry PINEPYGDDLD [JUP_Y693_M697L] , answer whether its phosphorylation enrichment meets or surpasses 0.6.
Output: Satisfied
